- assay-details: in vitro
- cond: human, hela cells, % viability
measured-quantity: viability at 28.5 h, 10 µM (%)
Express your answer in %, writing the number without its unit.

Sample O=C1CCOC[C@]2(CN(Cc3ccccc3)C[C@H]2c2ccccc2)N1 [CBK283367] ; viability at 28.5 h, 10 µM observed: 92.6

According to the records, this molecule Cc1nc(CC(=O)NC2CCCN(c3ccn(C)n3)C2=O)c(C)s1 (stereo not drawn) [CBK304422] displays viability at 28.5 h, 10 µM of 82.8

Consider COC(=O)C1CCCCN1S(=O)(=O)c1cccs1 (stereo not drawn) [CBK051135] . Its measured viability at 28.5 h, 10 µM is 109

Memo: Cc1noc(C(C)C)c1C(=O)NC1CCCN(c2ccn(C)n2)C1=O (stereo not drawn) [CBK306356] , reported viability at 28.5 h, 10 µM: 75.8

Entry Fc1ccc(Sc2ccc(C(F)(F)F)cn2)cc1 [CBK115235] , viability at 28.5 h, 10 µM reported as 106

For reference, reported viability at 28.5 h, 10 µM for COc1cc(C=O)ccc1OCC(=O)Nc1ccc(C)c(Cl)c1 [CBK266190] stands at 111

Recorded result, c1ccc2c(c1)OCc1nnc(CCN3CCCCC3)n1-2 [CBK005285] , viability at 28.5 h, 10 µM: 95.2

What the record says about Cn1c(=O)n(CC#N)c2ccccc21 [CBK025636] : viability at 28.5 h, 10 µM is 96.9

response.value for CCCCCOc1ccc(Nc2cc(-c3ccco3)ncn2)cc1 [CBK090892] (field: viability at 28.5 h, 10 µM) = 92.6

Reported viability at 28.5 h, 10 µM ( NC1CCN(C(=O)c2cn(C3CC3)c3cc(Cl)c(F)cc3c2=O)CC1 [CBK168626] ) = 93.3

The molecule identified as CSCCOc1cc(NC(C)C)ncn1 [CBK115889] registered its viability at 28.5 h, 10 µM at 86.9

For C=CCOc1ccc(CNCCN2CCOCC2)cc1 [CBK278215C] the molecule record lists viability at 28.5 h, 10 µM as 94.3

The value of viability at 28.5 h, 10 µM measured for the molecule COc1ccc(C(=O)N2CCN(c3cnn(C)c(=O)c3Cl)CC2)cc1 [CBK305720] turned out to be 84.8

Just so you know, measured viability at 28.5 h, 10 µM for CC(=O)Nc1ccc(CN(C)c2c(C)nc3c(OCc4ccc(C(F)(F)F)cc4)cccn23)cc1 [CBK147380] came out at 94.5

Looking up Cc1csc(-c2ccc(C(=O)N(C)CCN(C)C)c(NCC3CC3)n2)c1 [CBK106279] , I see its viability at 28.5 h, 10 µM listed as 84.2

Item: O=C(O)CCCCCN1C(=O)/C(=C/c2ccc(O)cc2)SC1=S [CBK262835] | viability at 28.5 h, 10 µM: 87.6

Record COC(=O)c1ccc(NC(=S)N2CCC(C(N)=O)CC2)cc1 [CBK267232] , field viability at 28.5 h, 10 µM: 90.2

Given item O=[N+]([O-])c1ccc(/C=N/CCCN2CCOCC2)cc1 [CBK261058] , the value recorded as its viability at 28.5 h, 10 µM is 87.5

Sourced from paper PMC12040169
